Biological target: Proteasome subunit beta (Trypanosoma cruzi)
Sequence (whole entry): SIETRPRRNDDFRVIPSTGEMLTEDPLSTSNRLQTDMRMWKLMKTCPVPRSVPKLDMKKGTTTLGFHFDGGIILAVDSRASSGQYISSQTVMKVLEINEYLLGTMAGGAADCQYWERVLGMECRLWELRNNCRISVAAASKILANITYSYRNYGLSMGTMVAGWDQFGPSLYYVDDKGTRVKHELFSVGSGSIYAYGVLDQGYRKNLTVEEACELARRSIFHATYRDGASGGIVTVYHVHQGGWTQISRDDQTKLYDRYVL
Test: Trypanosoma cruzi proteasome chymotrypsin-like activity (TcProtChymo) assay. Also: in the data most compounds retested in dose-response had high values.
Type: functional
Parameters: scale not given: direction of the effect not stated beside the values
Conditions: 9.37 µM
Assignment: determine reported Percent Effect for the given compounds.
Give your result in % as a bare value.

GET /value?item= CCc1ccc(OCC(O)CN2CCN(S(C)(=O)=O)CC2)cc1 (stereo unspecified) &field=Percent Effect returns 3.96

Entry O=C(Cc1ccsc1)N1CCn2cc(CN3CCCC3)nc2C1 ; Percent Effect = 20.1

// Percent Effect lookup, compound = CN(C(=O)Cn1nc(-c2ccc(F)cc2)oc1=O)C1CCS(=O)(=O)C1 (stereo unspecified) , result: 19.3

Entry CCc1ccc(S(=O)(=O)Nc2c(C)cccc2C(=O)O)s1 ; Percent Effect = 3.64

Please fill in: Percent Effect reported for N#CCCN(C(=O)CN1CCCC1Cc1ccccc1)c1ccccc1 (stereo unspecified) = 5.33

Field Percent Effect (entry Cc1cc(CNC(=O)NC(C)c2ccncc2)no1 (stereo unspecified) ) reads 12.7

Short answer for COc1ccc(CN(C)C(=O)CCC(=O)c2cccs2)c(OC)c1OC : Percent Effect was 10.7

The compound CC(C)c1nccn1C1CCCN(C(=O)c2ccnc(N(C)C)c2)C1 (stereo unspecified) showed Percent Effect equal to 10.6

Entry Cc1ccc(C(=O)N2CCCC(C(=O)N3CCCCC3)C2)c(O)c1 (stereo unspecified) ; Percent Effect = -2.7

Lab book: Percent Effect of N#Cc1cccc(CS(=O)(=O)NCCC(O)c2ccccc2)c1 (stereo unspecified) noted as 16.2

Form: compound = O=C(Cn1nc(-c2ccc(F)cc2)oc1=O)NCc1ccc(F)cc1 ; Percent Effect = 13.4

----------
species on record: Homo sapiens; test: To identify inhibition of the IFN signalling (Jak-Stat) pathway via expression of an eGFP reporter gene under the control of an IFN-stimulated response element (ISRE) containing MxA promoter.; format: functional; set-up: scale not given: direction of the effect not stated beside the values; details: 30 µM
Give measured Percent Effect for each item. Keep answers brief.

// Percent Effect value for CNc1cc2c(nn1)CCN(C(=O)c1ccc(-n3nccc3C)cc1)C2 : 14.4%

# Percent Effect (compound: CCn1cnnc1CNC(=O)N(C)Cc1ccc2c(c1)OCCO2 ) is 2.89%

Per the records, this compound ( CC(=O)N(Cc1noc(C2CC2)n1)C1CCN(Cc2cccnc2)C1 (stereo unspecified) ) has Percent Effect equal to 12.5%

The compound listed as CCOC(=O)C1CCCN(c2ccc(-c3nc(C)no3)cn2)C1 (stereo unspecified) has a reported Percent Effect of 1.88%

Recorded result, COc1c(CNCC(c2cccc(F)c2)N(C)C)c(C(C)C)nn1C (stereo unspecified) , Percent Effect: 5.62%

Lab note: CCCc1n[nH]c(C2CN(CCNS(=O)(=O)CC)CCO2)n1 (stereo unspecified) gave Percent Effect of 18.3%

Data point: CN(CC1CCCCO1)C(=O)c1ccnc(OC2CCC2)c1 (stereo unspecified) ; Percent Effect = 29.6%

What the record says about CC(=O)c1cccc(OCCCC(=O)N(C)Cc2ccccn2)c1 : Percent Effect is -7.21%

// field: Percent Effect; key: COc1ccc(OCc2nc(C(=O)N3CC[C@H](O)[C@@H](O)C3)co2)cc1 ; value = -0.834%

Notebook: c1nc2c(c(-c3ccsc3)n1)CCN(Cc1ccoc1)CC2 , Percent Effect read as 12.5%

The measured Percent Effect associated with O=C(c1ccccc1OCC1CC1)N1CCCC(n2ccnc2)C1 (stereo unspecified) reads -14%
